- System: Rattus norvegicus
- ASSAY_METHOD_TEXT: Antiamnesic activity in Charles Foster albino rat assessed as reduction in scopolamine-induced increase in transfer latency at 5 mg/kg, po administered for 7 days measured 1 hr post last dose by elevated plus maze task (reference value: 67.67 +/- 0.88 s)
- Format: functional
MEASURE: Time (s)

INSERT INTO measurements (cpd_smiles, measure, scale_unit, reported) VALUES
  ('O=C1C=CC(=O)N1c1ccncc1', 'Time', 's', 64.67),
  ('O=C(O)/C=C\C(=O)Nc1ccncc1', 'Time', 's', 80.5),
  ('O=C(O)CCC(=O)Nc1ccncc1', 'Time', 's', 77.67),
  ('O=C1CCC(=O)N1c1ccncc1', 'Time', 's', 66.83);

###

IC50, Acetylcholinesterase (Electrophorus electricus, UniProt O42275): measured values
MEASURE: IC50 (µM)

INSERT INTO results (cpd_smiles, reported) VALUES
  ('O=C(O)/C=C\C(=O)Nc1ccncc1', 48.7),
  ('O=C1C=CC(=O)N1c1ccncc1', 0.03),
  ('O=C(O)CCC(=O)Nc1ccncc1', 40.3),
  ('O=C1CCC(=O)N1c1ccncc1', 0.49);

###

- SYSTEM_UNDER_TEST: Cholinesterase (Homo sapiens, UniProt P06276)
- Sequence (P06276 whole entry): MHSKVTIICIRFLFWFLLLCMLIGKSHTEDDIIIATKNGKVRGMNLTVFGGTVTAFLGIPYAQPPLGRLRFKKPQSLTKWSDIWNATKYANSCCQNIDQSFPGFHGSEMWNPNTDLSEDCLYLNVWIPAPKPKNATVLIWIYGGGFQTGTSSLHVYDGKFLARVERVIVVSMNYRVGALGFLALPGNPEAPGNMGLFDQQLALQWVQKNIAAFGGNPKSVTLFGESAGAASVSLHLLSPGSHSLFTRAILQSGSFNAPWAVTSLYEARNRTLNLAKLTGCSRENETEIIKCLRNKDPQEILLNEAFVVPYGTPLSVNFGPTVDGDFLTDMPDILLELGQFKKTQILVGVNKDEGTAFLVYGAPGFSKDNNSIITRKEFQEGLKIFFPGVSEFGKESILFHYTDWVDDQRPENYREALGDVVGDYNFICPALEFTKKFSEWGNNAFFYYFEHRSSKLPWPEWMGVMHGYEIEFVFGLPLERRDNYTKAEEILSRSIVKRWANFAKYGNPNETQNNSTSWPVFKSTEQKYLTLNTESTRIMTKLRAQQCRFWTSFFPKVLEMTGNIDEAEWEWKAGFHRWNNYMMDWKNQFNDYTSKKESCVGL
- ASSAY_METHOD_TEXT: Inhibition of human serum BChE using butyrylthiolcholine iodide as substrate incubated for 20 mins prior to substrate addition by Ellman's method
MEASURE: IC50 (µM)

INSERT INTO results (cpd_smiles, system_under_test, scale_unit, reported) VALUES
  ('O=C(O)CCC(=O)Nc1ccncc1', 'Cholinesterase (Homo sapiens, UniProt P06276)', 'µM', 56.5),
  ('O=C1CCC(=O)N1c1ccncc1', 'Cholinesterase (Homo sapiens, UniProt P06276)', 'µM', 3.82),
  ('O=C1C=CC(=O)N1c1ccncc1', 'Cholinesterase (Homo sapiens, UniProt P06276)', 'µM', 11),
  ('O=C(O)/C=C\C(=O)Nc1ccncc1', 'Cholinesterase (Homo sapiens, UniProt P06276)', 'µM', 657);

###

- SYSTEM_UNDER_TEST: Acetylcholinesterase (Electrophorus electricus, UniProt O42275)
- Sequence (O42275 whole entry): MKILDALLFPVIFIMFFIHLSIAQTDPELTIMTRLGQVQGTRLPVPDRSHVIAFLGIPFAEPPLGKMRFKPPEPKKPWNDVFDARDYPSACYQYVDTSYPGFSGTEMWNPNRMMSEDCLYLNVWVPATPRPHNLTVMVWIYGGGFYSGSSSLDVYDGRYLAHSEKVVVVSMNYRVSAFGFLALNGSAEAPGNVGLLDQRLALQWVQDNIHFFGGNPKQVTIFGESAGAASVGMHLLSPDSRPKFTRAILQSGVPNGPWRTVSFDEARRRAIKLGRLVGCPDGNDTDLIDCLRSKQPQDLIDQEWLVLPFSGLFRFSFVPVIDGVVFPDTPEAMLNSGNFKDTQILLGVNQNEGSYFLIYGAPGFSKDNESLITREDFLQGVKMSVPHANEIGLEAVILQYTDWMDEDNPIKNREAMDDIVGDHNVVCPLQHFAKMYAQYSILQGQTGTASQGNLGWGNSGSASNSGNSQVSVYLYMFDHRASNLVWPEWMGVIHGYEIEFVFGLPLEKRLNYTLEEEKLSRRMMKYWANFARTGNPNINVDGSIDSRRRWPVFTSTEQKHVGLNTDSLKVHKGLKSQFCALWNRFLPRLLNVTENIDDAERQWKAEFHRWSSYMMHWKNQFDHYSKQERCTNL
MEASURE: Ki (nM)

INSERT INTO assay_data (cpd_smiles, measure, reported) VALUES
  ('O=C1C=CC(=O)N1c1ccncc1', 'Ki', 42);

###

- ASSAY_METHOD_TEXT: Selectivity ratio of IC50 for human serum BChE to IC50 for electric eel AChE
Collected Ratio IC50 values appear next to each entry.
MEASURE: Ratio IC50

INSERT INTO assay_data (cpd_smiles, reported) VALUES
  ('O=C1C=CC(=O)N1c1ccncc1', 367),
  ('O=C(O)/C=C\C(=O)Nc1ccncc1', 13.5),
  ('O=C1CCC(=O)N1c1ccncc1', 7.79),
  ('O=C(O)CCC(=O)Nc1ccncc1', 1.39);

###

- Test system: Rattus norvegicus
- ASSAY_METHOD_TEXT: Acute toxicity in Charles Foster albino rat assessed as lacrimation up to 100 mg/kg, po after 48 hrs
- Assay type: organism-based
- Design: dose 100 mg/kg, route oral
- TEST_PARAMETERS: in vivo
MEASURE: Activity

INSERT INTO assay_data (cpd_smiles, reported) VALUES
  ('O=C(O)CCC(=O)Nc1ccncc1', 'Non-toxic'),
  ('O=C(O)/C=C\C(=O)Nc1ccncc1', 'Non-toxic'),
  ('O=C1CCC(=O)N1c1ccncc1', 'Non-toxic'),
  ('O=C1C=CC(=O)N1c1ccncc1', 'Non-toxic');
